- Tgt: kGDH (Homo sapiens, UniProt Q02218)
- Construct: Log-phase growing cells were trypsinized and resuspended in TDM; endogenous in cells
- Sequence (Q02218 41-1023): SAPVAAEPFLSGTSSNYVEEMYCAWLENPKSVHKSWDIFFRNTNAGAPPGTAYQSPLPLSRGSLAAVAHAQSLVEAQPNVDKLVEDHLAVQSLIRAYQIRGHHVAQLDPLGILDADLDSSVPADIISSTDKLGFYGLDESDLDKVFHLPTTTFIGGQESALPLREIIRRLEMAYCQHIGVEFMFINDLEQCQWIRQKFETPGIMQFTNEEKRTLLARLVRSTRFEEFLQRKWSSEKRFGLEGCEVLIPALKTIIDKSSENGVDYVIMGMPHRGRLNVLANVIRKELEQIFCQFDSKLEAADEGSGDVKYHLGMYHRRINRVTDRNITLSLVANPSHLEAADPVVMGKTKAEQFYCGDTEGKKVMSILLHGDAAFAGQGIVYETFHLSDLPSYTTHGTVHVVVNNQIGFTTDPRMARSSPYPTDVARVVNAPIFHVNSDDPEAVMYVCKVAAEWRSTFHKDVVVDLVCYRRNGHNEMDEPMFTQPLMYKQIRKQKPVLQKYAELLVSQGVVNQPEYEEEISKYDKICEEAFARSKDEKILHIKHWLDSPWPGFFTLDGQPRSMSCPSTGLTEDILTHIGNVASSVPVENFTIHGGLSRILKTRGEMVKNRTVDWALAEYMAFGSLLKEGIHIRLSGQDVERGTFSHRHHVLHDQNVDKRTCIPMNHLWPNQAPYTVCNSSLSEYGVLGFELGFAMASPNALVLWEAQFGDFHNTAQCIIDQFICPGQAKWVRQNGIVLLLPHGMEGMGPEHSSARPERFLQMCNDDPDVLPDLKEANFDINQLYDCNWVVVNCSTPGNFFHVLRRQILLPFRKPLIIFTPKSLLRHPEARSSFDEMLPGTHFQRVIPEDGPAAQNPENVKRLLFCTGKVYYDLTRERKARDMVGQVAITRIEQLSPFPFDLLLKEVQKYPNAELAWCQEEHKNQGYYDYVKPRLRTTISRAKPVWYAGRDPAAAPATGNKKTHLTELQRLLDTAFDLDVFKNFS
- Sequence (P36957 68-453 partner): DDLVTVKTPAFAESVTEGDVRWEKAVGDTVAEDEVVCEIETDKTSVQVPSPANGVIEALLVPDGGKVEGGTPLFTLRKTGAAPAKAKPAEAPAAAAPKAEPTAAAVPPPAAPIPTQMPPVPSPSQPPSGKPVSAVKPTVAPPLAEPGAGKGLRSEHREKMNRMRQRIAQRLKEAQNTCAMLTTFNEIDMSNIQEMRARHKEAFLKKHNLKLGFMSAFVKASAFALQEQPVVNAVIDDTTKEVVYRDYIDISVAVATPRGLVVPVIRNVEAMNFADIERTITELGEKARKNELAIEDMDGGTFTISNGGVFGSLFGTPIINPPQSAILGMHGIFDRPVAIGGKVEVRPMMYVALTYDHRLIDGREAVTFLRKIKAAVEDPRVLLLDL
- Sequence (P09622 36-509 partner): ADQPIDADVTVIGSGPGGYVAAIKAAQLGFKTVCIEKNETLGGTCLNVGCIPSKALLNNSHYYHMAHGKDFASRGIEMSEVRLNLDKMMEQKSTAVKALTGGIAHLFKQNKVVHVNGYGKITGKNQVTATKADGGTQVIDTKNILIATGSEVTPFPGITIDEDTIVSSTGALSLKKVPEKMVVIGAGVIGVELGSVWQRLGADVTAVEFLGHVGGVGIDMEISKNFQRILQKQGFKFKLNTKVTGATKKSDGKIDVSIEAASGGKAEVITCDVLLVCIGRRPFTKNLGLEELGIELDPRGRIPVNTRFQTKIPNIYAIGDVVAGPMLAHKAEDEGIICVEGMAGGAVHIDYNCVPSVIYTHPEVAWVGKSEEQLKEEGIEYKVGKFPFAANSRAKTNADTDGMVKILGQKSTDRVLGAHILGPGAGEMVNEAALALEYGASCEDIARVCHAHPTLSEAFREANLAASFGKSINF
- Assay: Cell-based kGDH inhibition in thiamine-depleted media, 96-well format
- Condition Info: treated cells, 48 hours treatment
Quantity Name: IC50

INSERT INTO results (sample_smiles, tgt, quantity_name, experimental_value) VALUES
  ('Cc1ccc(C[n+]2csc(CCO)c2C)c(N)n1', 'kGDH (Homo sapiens, UniProt Q02218)', 'IC50', '86 nM');

----------
- Tgt: UniProt P29401
- Sequence (P29401 whole entry): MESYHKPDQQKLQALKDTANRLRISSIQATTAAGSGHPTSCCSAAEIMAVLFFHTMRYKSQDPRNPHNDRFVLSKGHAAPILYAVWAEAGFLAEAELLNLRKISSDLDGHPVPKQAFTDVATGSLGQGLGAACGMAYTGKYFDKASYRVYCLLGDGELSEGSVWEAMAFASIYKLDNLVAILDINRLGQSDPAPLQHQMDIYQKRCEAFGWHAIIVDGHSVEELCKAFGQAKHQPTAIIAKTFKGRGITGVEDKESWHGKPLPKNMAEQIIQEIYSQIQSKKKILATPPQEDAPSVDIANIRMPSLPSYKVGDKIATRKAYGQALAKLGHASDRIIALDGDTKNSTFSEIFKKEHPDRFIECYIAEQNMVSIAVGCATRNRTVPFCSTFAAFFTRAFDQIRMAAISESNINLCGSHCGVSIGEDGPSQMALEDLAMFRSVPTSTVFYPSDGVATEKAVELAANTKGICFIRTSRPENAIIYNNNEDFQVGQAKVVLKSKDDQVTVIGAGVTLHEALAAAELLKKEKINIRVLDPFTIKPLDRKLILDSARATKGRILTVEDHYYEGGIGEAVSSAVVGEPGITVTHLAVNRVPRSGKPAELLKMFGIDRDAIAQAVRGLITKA
- Assay: Cell-based TK inhibition in thiamine-depleted media, 96-well format
- Condition Info: treated cells, 48 hours treatment
Quantity Name: IC50

INSERT INTO results (sample_smiles, experimental_value) VALUES
  ('Cc1ccc(C[n+]2csc(CCO)c2C)c(N)n1', '20 nM');
